Hello, the source for this data is ChEMBL document CHEMBL1138197, in case you need it.

# measurement.target: D(1B) dopamine receptor (Homo sapiens)
# procedure.text: Inhibition of D5 dopamine receptor in HEK 293 cells by intracellular calcium assay
# Type: functional, cell-based, HEK293
Reported pKi values follow for various compounds
# reply with the number alone; pKi is -log10 of concentration in mol/L

IN: Fill blank: measured pKi of the compound COc1ccc2c(c1)CCN(C)CCc1ccccc1C2 is ____.
OUT: 8.14

IN: For CN1CCc2cc(O)ccc2Cc2ccc(O)cc2CC1 , what is its reported pKi?
OUT: 9.27

IN: Suppose we examine the compound COc1c(Cl)cc2c(c1Cl)Cc1ccccc1CCN(C)CC2 ; what pKi value has been reported?
OUT: 7.23

IN: Consider the compound CN1CCc2ccccc2Cc2cc(Cl)c(O)c(Cl)c2CC1 and give its measured pKi.
OUT: 8.92

IN: // lookup pKi for CN1CCc2ccccc2Cc2c(O)cccc2CC1
OUT: 7.98

IN: Sample CN1CCc2ccccc2Cc2ccc(O)c(Cl)c2CC1 — what was its pKi?
OUT: 10.28

IN: GET /values?readout=pKi&item= CN1CCc2ccccc2Cc2c(ccc(O)c2Cl)CC1
OUT: 8.80

IN: // pKi lookup, key: COc1ccc2c(c1)CCN(C)CCc1cc(OC)ccc1C2
OUT: 7.94

IN: What does the record list as pKi for CN1CCc2ccccc2Cc2cc(O)c(Cl)cc2CC1 ?
OUT: 8.51

###

# measurement.target: D(1B) dopamine receptor (Homo sapiens, UniProt P21918)
# Sequence (P21918 whole entry): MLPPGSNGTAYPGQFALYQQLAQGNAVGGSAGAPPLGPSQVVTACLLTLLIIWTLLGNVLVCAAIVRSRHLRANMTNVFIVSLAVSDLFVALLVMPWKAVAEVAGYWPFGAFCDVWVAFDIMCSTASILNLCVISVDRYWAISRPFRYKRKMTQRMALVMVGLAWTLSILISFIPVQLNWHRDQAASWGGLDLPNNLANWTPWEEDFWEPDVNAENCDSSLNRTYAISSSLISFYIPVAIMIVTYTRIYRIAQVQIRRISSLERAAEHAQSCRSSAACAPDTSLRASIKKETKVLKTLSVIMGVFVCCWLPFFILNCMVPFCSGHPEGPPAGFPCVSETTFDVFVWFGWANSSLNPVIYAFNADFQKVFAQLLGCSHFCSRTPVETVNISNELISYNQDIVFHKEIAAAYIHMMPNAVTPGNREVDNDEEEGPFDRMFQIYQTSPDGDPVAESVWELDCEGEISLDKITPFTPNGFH
# procedure.text: Binding affinity to D5 dopamine receptor by radioligand binding assay
parameter: log10 Ki (log10 of the value in nM)
Values are log10 of Ki in nM.

Sample answers from the record:
{"columns": ["compound.string", "measured.value"],
 "data": [
  ["CN1CCc2ccccc2Cc2cc(O)ccc2CC1", 1.63],
  ["CN1CCc2cc(O)ccc2Cc2ccc(O)cc2CC1", 0.23],
  ["CN1CCc2ccccc2Cc2cc(O)c(Cl)cc2CC1", 0.69],
  ["CN1CCc2ccccc2Cc2ccc(O)c(Cl)c2CC1", -1.24],
  ["COc1ccc2c(c1)CCN(C)CCc1cc(OC)ccc1C2", 1.10],
  ["CN1CCc2ccccc2Cc2c(ccc(O)c2Cl)CC1", -0.01]
]}

IN: Query: log10 Ki; subject: CN1CCc2ccccc2Cc2[nH]c3ccccc3c2CC1
OUT: 0.88

IN: Data request, read-out log10 Ki, for CN1CCc2ccccc2Cc2cc(N)c(O)cc2CC1
OUT: 2.35

###

# measurement.target: D(2) dopamine receptor (Homo sapiens, UniProt P14416)
# Sequence (P14416 whole entry): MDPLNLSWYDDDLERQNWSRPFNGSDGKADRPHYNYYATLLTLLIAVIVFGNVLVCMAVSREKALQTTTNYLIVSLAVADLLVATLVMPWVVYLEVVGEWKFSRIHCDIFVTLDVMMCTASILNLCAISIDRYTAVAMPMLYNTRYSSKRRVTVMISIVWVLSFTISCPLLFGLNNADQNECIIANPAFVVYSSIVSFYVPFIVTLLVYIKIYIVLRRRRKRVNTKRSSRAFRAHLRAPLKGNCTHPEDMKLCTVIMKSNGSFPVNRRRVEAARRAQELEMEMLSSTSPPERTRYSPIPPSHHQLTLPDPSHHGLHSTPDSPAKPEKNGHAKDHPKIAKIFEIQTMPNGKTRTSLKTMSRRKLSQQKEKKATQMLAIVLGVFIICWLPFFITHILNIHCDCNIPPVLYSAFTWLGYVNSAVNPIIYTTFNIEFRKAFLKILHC
# procedure.text: Inhibition of D2L dopamine receptor in HEK 293 cells by intracellular calcium assay
# Type: functional, cell-based, HEK293
pKi reference
Here pKi is given on a logarithmic scale as minus log10 of the concentration in mol/L.

Examples with their reported pKi follow.
{"columns": ["compound.string", "measurement.target", "pKi"],
 "data": [
  ["COc1ccc2c(c1)CCN(C)CCc1cc(OC)ccc1C2", "D(2) dopamine receptor (Homo sapiens, UniProt P14416)", 9.21],
  ["COc1c(Cl)cc2c(c1Cl)Cc1ccccc1CCN(C)CC2", "D(2) dopamine receptor (Homo sapiens, UniProt P14416)", 8.60],
  ["CN1CCc2cc(O)ccc2Cc2ccc(O)cc2CC1", "D(2) dopamine receptor (Homo sapiens, UniProt P14416)", 7.72],
  ["CN1CCc2ccccc2Cc2cc(N)c(O)cc2CC1", "D(2) dopamine receptor (Homo sapiens, UniProt P14416)", 7.58],
  ["CN1CCc2ccccc2Cc2cc(O)c(Cl)cc2CC1", "D(2) dopamine receptor (Homo sapiens, UniProt P14416)", 8.32],
  ["CN1CCc2ccccc2Cc2[nH]c3ccccc3c2CC1", "D(2) dopamine receptor (Homo sapiens, UniProt P14416)", 7.72]
]}

Field: next compound
IN: Given the compound CN1CCc2ccccc2Cc2cc(O)ccc2CC1 , what is its reported pKi?
OUT: 7.72
